TESTED ON: ROCK2 (Homo sapiens)
Sequence (O75116 whole entry): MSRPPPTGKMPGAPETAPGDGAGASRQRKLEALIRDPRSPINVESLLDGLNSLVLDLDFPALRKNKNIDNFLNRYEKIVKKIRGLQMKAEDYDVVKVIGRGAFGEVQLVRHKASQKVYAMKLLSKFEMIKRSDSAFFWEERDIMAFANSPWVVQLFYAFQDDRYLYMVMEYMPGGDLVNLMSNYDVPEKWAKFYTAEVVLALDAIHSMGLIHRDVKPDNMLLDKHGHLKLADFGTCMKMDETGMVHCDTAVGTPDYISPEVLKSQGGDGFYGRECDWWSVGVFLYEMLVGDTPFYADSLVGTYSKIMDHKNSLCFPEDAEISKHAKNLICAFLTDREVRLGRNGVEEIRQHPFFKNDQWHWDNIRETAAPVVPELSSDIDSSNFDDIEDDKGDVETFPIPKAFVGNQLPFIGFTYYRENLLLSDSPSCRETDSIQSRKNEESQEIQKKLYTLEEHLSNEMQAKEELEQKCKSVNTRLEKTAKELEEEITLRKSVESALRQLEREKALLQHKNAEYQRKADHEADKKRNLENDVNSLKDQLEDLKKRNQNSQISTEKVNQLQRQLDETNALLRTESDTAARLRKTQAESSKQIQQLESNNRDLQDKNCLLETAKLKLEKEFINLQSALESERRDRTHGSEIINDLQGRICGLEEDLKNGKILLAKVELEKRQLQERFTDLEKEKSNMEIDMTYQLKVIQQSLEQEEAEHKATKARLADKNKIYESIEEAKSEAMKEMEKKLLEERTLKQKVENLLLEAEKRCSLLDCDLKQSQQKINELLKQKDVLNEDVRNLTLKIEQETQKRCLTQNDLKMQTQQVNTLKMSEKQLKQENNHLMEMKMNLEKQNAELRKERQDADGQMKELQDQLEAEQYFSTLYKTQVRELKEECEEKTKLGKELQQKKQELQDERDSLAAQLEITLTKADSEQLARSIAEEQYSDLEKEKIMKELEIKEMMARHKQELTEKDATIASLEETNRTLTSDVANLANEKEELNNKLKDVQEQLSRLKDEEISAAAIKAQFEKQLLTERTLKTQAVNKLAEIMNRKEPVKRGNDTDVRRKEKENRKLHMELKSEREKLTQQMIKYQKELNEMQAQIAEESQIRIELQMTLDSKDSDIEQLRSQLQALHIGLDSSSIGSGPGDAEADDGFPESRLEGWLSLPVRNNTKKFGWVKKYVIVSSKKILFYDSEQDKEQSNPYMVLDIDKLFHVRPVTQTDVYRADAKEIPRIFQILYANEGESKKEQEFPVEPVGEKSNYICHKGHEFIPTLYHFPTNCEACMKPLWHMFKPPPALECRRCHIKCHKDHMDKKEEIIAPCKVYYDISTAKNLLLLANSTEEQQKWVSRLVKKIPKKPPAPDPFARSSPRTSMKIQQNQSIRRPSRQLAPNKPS

COMPOUND: CN1CCC(c2[nH]c(-c3ccc(F)cc3)c(-c3ccncc3)c2C#N)CC1 [RUPB-18]
ENDPOINT UNIT: nM
Kd: 560
--
COMPOUND: C[C@@H]1CN(C)CC[C@@H]1c1cc(-c2ccncc2)c(-c2ccc(F)cc2)[nH]1.Cl.Cl [RUPB-61]
ENDPOINT UNIT: nM
Kd: 13

---

ASSAY DETAILS: Pharmacokinetics in mice after oral or intravenous dosing
Assay type: in vivo
RECORDED CONDITIONS: mouse, plasma, iv, 10 mg/kg, mice, IV 10 mg/kg, average of 3 mice; read-out: Vss obs
METRIC NAME: Vd (L/kg)

MOLECULE: C[C@@H]1CN(C)CC[C@@H]1c1cc(-c2ccncc2)c(-c2ccc(F)cc2)[nH]1.Cl.Cl [RUPB-61]
METRIC NAME: Vd
ENDPOINT UNIT: L/kg
RECORDED RESULT: 47.3

---

ASSAY DETAILS: Cellular cytotoxicity, hepatocyte nuclear counts
Type: cell-based, human
RECORDED CONDITIONS: human, primary cryopreserved human hepatocytes (lot BGW); cellular cytotoxicity
METRIC NAME: CC50 at 3 days

SMILES DATA: C[C@@H]1CN(C)CC[C@@H]1c1cc(-c2ccncc2)c(-c2ccc(F)cc2)[nH]1.Cl.Cl
RECORDED RESULT: > 20 µM
